Below, each entry is listed alongside its reported residual activity.
# Study target: Ribosomal protein S6 kinase alpha-1 (Homo sapiens)
# Test conditions: at 1 µM

Smiles entry | Study target | residual activity / %
CCn1cnc2c(Nc3cccc(Cl)c3)nc(N[C@@H]3CCCC[C@@H]3N)nc21 | Ribosomal protein S6 kinase alpha-1 (Homo sapiens) | 67
O=[N+]([O-])/C=C/c1ccc2c(c1)OCO2 | Ribosomal protein S6 kinase alpha-1 (Homo sapiens) | 137
COc1cc2ncnc(Nc3ccc(OCc4ccccc4)cc3)c2cc1OC | Ribosomal protein S6 kinase alpha-1 (Homo sapiens) | 106
O=c1[nH]c2ccccc2n1C1CCN(Cc2ccc(-c3nc4cc5[nH]cnc5cc4nc3-c3ccccc3)cc2)CC1 | Ribosomal protein S6 kinase alpha-1 (Homo sapiens) | 117
COc1ccc2c(c1)/C(=C/c1cnc[nH]1)C(=O)N2 | Ribosomal protein S6 kinase alpha-1 (Homo sapiens) | 60
O=C1c2ccccc2-c2nc3nnnn3nc21 | Ribosomal protein S6 kinase alpha-1 (Homo sapiens) | 109
COC(=O)[C@@]1(O)C[C@H]2O[C@]1(C)n1c3ccccc3c3c4c(c5c6ccccc6n2c5c31)C(=O)NC4 | Ribosomal protein S6 kinase alpha-1 (Homo sapiens) | 1

----------
# Study target: Serine/threonine-protein kinase D2 (Homo sapiens) (UniProt Q9BZL6)
# Sequence (Q9BZL6 whole entry): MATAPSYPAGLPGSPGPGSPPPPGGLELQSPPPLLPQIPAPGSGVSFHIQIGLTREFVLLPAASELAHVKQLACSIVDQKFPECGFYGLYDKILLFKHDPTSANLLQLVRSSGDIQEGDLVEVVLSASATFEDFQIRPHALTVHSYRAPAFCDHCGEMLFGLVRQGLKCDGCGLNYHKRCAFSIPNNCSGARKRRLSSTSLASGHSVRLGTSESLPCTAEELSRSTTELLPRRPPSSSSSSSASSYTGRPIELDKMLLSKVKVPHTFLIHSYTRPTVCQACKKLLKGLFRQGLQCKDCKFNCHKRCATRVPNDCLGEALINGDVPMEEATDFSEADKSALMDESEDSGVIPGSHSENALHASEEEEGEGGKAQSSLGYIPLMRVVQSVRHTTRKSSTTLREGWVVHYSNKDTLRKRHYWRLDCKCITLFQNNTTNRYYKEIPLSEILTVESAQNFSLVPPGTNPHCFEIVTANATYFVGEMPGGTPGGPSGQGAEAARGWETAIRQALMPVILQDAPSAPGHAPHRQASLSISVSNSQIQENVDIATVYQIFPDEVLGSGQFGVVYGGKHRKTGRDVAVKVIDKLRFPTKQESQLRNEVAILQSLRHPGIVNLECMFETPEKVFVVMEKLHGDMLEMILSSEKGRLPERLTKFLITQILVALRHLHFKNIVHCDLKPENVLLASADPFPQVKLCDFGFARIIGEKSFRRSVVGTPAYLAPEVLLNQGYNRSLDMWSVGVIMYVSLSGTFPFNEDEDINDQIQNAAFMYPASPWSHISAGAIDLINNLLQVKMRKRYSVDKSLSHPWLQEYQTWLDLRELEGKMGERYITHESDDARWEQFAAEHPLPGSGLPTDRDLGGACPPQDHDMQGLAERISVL
# Test conditions: at 1 µM

Compound | Result unit | residual activity
O=C1NC(=O)c2c1c1c3ccccc3n3c1c1c2c2ccccc2n1C1CCC3O1 | % | 92
C[S+]([O-])c1ccc(-c2nc(-c3ccc(F)cc3)c(-c3ccncc3)[nH]2)cc1 (stereo not given) | % | 105
CCn1cnc2c(Nc3cccc(Cl)c3)nc(N[C@@H]3CCCC[C@@H]3N)nc21 | % | 97
O=C1Nc2ccc3ncsc3c2/C1=C/c1c[nH]cn1 | % | 30
COc1cc2ncnc(Nc3ccc(OCc4ccccc4)cc3)c2cc1OC | % | 98

----------
# Study target: Ribosomal protein S6 kinase alpha-4 (Homo sapiens)
# Test conditions: at 10 µM
Property name: residual activity (%)

Smiles entry | Property name | Result unit | Value reported
COc1cc(OC)c(/C=C2\C(=O)Nc3ccccc32)c(OC)c1 | residual activity | % | 94
c1cc(-c2cnn3cc(-c4ccc(OCCN5CCCCC5)cc4)cnc23)ccn1 | residual activity | % | 70
COc1ccc2c(c[n+](C)c3c4cc5c(cc4ccc23)OCO5)c1OC | residual activity | % | 94
O=C1c2ccccc2-c2nc3nnnn3nc21 | residual activity | % | 108
CC(C)[C@H](CO)Nc1nc(Nc2cccc(Cl)c2)c2ncn(C(C)C)c2n1 | residual activity | % | 62
O=C1NC(=O)c2c1c1c3ccccc3n3c1c1c2c2ccccc2n1C1CCC3O1 | residual activity | % | 64
COC(=O)[C@@]1(O)C[C@H]2O[C@]1(C)n1c3ccccc3c3c4c(c5c6ccccc6n2c5c31)C(=O)NC4 | residual activity | % | 0
O=c1[nH]c2ccccc2n1C1CCN(Cc2ccc(-c3nc4cc5[nH]cnc5cc4nc3-c3ccccc3)cc2)CC1 | residual activity | % | 96
O=[N+]([O-])/C=C/c1ccc2c(c1)OCO2 | residual activity | % | 101

----------
# Study target: Protein-tyrosine kinase 2-beta (Homo sapiens)
# Test conditions: at 10 µM
The threshold is 80%. Values of residual activity beneath it are tagged Criterion met; values meeting or exceeding it are tagged Criterion not met.

Compound | Assigned label
O=C1Nc2ccc3ncsc3c2/C1=C/c1c[nH]cn1 | Criterion met
COC(=O)[C@@]1(O)C[C@H]2O[C@]1(C)n1c3ccccc3c3c4c(c5c6ccccc6n2c5c31)C(=O)NC4 | Criterion met
O=C1c2ccccc2-c2nc3nnnn3nc21 | Criterion not met
CC(C)[C@H](CO)Nc1nc(Nc2cccc(Cl)c2)c2ncn(C(C)C)c2n1 | Criterion met
c1cc(-c2cnn3cc(-c4ccc(OCCN5CCCCC5)cc4)cnc23)ccn1 | Criterion met
C[S+]([O-])c1ccc(-c2nc(-c3ccc(F)cc3)c(-c3ccncc3)[nH]2)cc1 (stereo unspecified) | Criterion not met

----------
Reported residual activity is given for each of the following compounds.
# Study target: Tyrosine-protein kinase ABL2 (Homo sapiens)
# Test conditions: at 10 µM
Property name: residual activity (%)

Compound | Property name | Value reported
COc1cc2ncnc(Nc3ccc(OCc4ccccc4)cc3)c2cc1OC | residual activity | 96
CCc1nc(-c2ccc(OC)cc2)[nH]c1-c1ccncc1 | residual activity | 75
O=c1[nH]c2ccccc2n1C1CCN(Cc2ccc(-c3nc4cc5[nH]cnc5cc4nc3-c3ccccc3)cc2)CC1 | residual activity | 89
COc1ccc2c(c[n+](C)c3c4cc5c(cc4ccc23)OCO5)c1OC | residual activity | 82
COC(=O)[C@@]1(O)C[C@H]2O[C@]1(C)n1c3ccccc3c3c4c(c5c6ccccc6n2c5c31)C(=O)NC4 | residual activity | 35
COc1ccc2c(c1)/C(=C/c1cnc[nH]1)C(=O)N2 | residual activity | 47
O=C1Nc2ccc3ncsc3c2/C1=C/c1c[nH]cn1 | residual activity | 33
O=C1c2ccccc2-c2nc3nnnn3nc21 | residual activity | 113
c1cc(-c2cnn3cc(-c4ccc(OCCN5CCCCC5)cc4)cnc23)ccn1 | residual activity | 1
C[S+]([O-])c1ccc(-c2nc(-c3ccc(F)cc3)c(-c3ccncc3)[nH]2)cc1 (stereo not given) | residual activity | 55

----------
# Study target: G protein-coupled receptor kinase 5 (Homo sapiens)
# Test conditions: at 1 µM
Each record here notes measured residual activity.

Molecule | Result unit | residual activity
c1ccc2c(-c3ccncc3)c[nH]c2c1 | % | 98
Cn1sc(=O)n(Cc2ccccc2)c1=O | % | 88
O=C1NC(=O)c2c1c1c3ccccc3[nH]c1n1cncc21 | % | 83
O=C(NC(NC(=S)Nc1ccc(F)c([N+](=O)[O-])c1)C(Cl)(Cl)Cl)C(c1ccccc1)c1ccccc1 (stereo unspecified) | % | 90
Cn1nc2c3c(cccc31)C(=O)c1ccccc1-2 | % | 102
CC(C)(C)n1nc(Cc2cccc3ccccc23)c2c(N)ncnc21 | % | 108
CC(C)(C)c1nc2c3ccc(F)cc3c3c(=O)[nH]ccc3c2[nH]1 | % | 72
CC(=O)O/N=C1\C(=C2\C(=O)Nc3cc(Br)ccc32)Nc2ccccc21 | % | 98
Oc1c2ccccc2c2c3c(cccc13)N=N2 | % | 84
CN(C)c1ccc(/C=C2\C(=O)Nc3ccccc32)cc1 | % | 91
O=C1Nc2ccc3ncsc3c2/C1=C/c1c[nH]cn1 | % | 71

----------
# Study target: Tyrosine-protein kinase Tec (Homo sapiens)
# Test conditions: at 1 µM
The threshold is 90%. Values of residual activity beneath it are tagged Fulfilled; values meeting or exceeding it are tagged Not fulfilled.

Compound | Assigned label
O=c1[nH]c2ccccc2n1C1CCN(Cc2ccc(-c3nc4cc5[nH]cnc5cc4nc3-c3ccccc3)cc2)CC1 | Not fulfilled
COC(=O)[C@@]1(O)C[C@H]2O[C@]1(C)n1c3ccccc3c3c4c(c5c6ccccc6n2c5c31)C(=O)NC4 | Fulfilled
CCn1cnc2c(Nc3cccc(Cl)c3)nc(N[C@@H]3CCCC[C@@H]3N)nc21 | Fulfilled
COc1cc(OC)c(/C=C2\C(=O)Nc3ccccc32)c(OC)c1 | Not fulfilled
C[S+]([O-])c1ccc(-c2nc(-c3ccc(F)cc3)c(-c3ccncc3)[nH]2)cc1 (stereo not given) | Not fulfilled

----------
# residual activity per entry
# Study target: Serine/threonine-protein kinase D1 (Homo sapiens) (UniProt Q15139)
# Sequence (Q15139 whole entry): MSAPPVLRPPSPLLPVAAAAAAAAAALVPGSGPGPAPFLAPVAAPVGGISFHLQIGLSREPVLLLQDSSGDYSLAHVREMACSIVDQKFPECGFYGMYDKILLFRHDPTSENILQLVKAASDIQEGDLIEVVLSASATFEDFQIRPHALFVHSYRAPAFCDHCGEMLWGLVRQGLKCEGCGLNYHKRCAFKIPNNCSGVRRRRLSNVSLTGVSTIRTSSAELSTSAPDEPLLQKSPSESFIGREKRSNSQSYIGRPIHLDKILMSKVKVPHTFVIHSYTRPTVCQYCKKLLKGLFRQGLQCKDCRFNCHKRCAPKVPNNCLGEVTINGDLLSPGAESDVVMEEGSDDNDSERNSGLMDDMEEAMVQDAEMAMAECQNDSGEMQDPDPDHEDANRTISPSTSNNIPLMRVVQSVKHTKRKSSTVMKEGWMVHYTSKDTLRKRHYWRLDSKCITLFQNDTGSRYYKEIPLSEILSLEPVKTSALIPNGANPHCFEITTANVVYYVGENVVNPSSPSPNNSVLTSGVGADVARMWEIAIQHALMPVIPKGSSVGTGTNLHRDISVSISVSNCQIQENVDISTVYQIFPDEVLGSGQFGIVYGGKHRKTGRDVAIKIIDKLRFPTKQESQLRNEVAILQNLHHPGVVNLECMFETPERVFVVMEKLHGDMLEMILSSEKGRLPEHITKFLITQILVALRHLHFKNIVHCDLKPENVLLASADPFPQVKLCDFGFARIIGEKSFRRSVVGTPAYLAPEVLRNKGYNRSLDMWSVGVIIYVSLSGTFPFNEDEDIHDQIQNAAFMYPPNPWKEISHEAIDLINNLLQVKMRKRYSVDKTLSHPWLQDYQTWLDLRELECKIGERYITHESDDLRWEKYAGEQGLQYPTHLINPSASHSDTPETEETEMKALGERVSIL
# Test conditions: at 10 µM

Molecule | Study target | residual activity
COc1cc2ncnc(Nc3ccc(OCc4ccccc4)cc3)c2cc1OC | Serine/threonine-protein kinase D1 (Homo sapiens) (UniProt Q15139) | 113%
CCn1cnc2c(Nc3cccc(Cl)c3)nc(N[C@@H]3CCCC[C@@H]3N)nc21 | Serine/threonine-protein kinase D1 (Homo sapiens) (UniProt Q15139) | 61%
CC(C)[C@H](CO)Nc1nc(Nc2cccc(Cl)c2)c2ncn(C(C)C)c2n1 | Serine/threonine-protein kinase D1 (Homo sapiens) (UniProt Q15139) | 86%
COC(=O)[C@@]1(O)C[C@H]2O[C@]1(C)n1c3ccccc3c3c4c(c5c6ccccc6n2c5c31)C(=O)NC4 | Serine/threonine-protein kinase D1 (Homo sapiens) (UniProt Q15139) | 0%
O=[N+]([O-])/C=C/c1ccc2c(c1)OCO2 | Serine/threonine-protein kinase D1 (Homo sapiens) (UniProt Q15139) | 88%
c1cc(-c2cnn3cc(-c4ccc(OCCN5CCCCC5)cc4)cnc23)ccn1 | Serine/threonine-protein kinase D1 (Homo sapiens) (UniProt Q15139) | 54%
COc1ccc2c(c[n+](C)c3c4cc5c(cc4ccc23)OCO5)c1OC | Serine/threonine-protein kinase D1 (Homo sapiens) (UniProt Q15139) | 61%
C[S+]([O-])c1ccc(-c2nc(-c3ccc(F)cc3)c(-c3ccncc3)[nH]2)cc1 (centres undefined) | Serine/threonine-protein kinase D1 (Homo sapiens) (UniProt Q15139) | 66%
O=C1c2ccccc2-c2nc3nnnn3nc21 | Serine/threonine-protein kinase D1 (Homo sapiens) (UniProt Q15139) | 106%
